assayed target: UniProt P41146
Sequence (P41146 whole entry): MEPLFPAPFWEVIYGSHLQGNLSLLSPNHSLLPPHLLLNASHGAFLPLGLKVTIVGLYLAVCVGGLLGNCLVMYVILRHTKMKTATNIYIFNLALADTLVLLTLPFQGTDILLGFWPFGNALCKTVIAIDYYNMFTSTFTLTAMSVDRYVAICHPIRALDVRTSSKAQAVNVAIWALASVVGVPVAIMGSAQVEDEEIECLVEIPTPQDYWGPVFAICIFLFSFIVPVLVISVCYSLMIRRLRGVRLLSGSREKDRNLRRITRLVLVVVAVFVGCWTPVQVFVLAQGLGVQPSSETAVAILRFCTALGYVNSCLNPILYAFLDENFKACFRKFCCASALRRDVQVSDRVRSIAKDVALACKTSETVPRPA
test summary: Cell-Based NOP Assay: Formula (I) compounds were tested for antagonism of the nociceptin receptor (NOP) in a cell-based cAMP assay, using the LANCE cAMP Detection Kit, Perkin Elmer (Waltham, Mass.). This assay (LANCE cAMP) is a homogeneous, time-resolved fluorescence resonance energy transfer (TR-FRET) immunoassay designed to measure cAMP produced upon modulation of adenylyl cyclase activity by G protein-coupled receptors (GPCRs).ProtocolCells expressing human opioid NOP (ValiScreen cell line, cat #ES-230-C Perkin Elmer (Waltham, Mass.) were dispensed in simulation buffer (5 mM Hepes, 0.1% BSA, 0.5 mM IBMX in Hanks Buffered Saline Solution) at 2.5 μL cells per well (400 cells/well) into a 1536 white TC-treated assay plate. Compound was then added and plates were incubated for 15 minutes at room temperature. To each well was added 2.5 μL of a solution containing forskolin (3 μM final) and nociceptin peptide (390 pM final) diluted in stimulation buffer, and the plates were incubated for 30 minutes at room temperature. To each well was dispensed 5 μL of LANCE Ultra detection (1:300 dilution of anti-cAMP ULight with a 1:100 dilution of Eu-cAMP tracer diluted in cAMP Detection Buffer) reagent, and the plates were incubated for 1 hr at room temperature. The plate was then read on the ViewLux microplate reader (Perkin Elmer, Waltham, Mass.) using the LANCE 1536 protocol with 60 second exposure times and 50 μs delay. This protocol has an excitation wavelength of 340 nm (DUG11 filter) and emission wavelengths of 615 nm (Eu-Donor) and 665 nm (Alexa 647 cAMP antibody acceptor).Data AnalysisData was analyzed, normalized, and visualized using ACAS (John McNeil & Co.). Efficacy was calculated using activity of the vehicle (DMSO) as 0% efficacy and the activity of the corresponding reference positive control (SCH 221510, Tocris Bioscience (Pittsburgh, Pa.), Catalog number 3240) as 100% efficacy. Activity was calculated as the ratio of donor and acceptor emissions. All curve fits and IC50 determinations were performed using a non-linear regression model. The IC50 value was measured as the concentration at which half-maximal response was calculated.
pIC50: −log10 of the molar value.

- molecule: "COCC1(NCCC2CCC(c3ccc(F)cc3F)CC2)CCOCC1 (configuration not stated)"
  pIC50: "7.00 to 8.00"
- molecule: "CCNC(=O)C1(NCC[C@H]2CC[C@@H](c3ccc(F)cc3Cl)CC2)CCOCC1"
  pIC50: "8.00 to 9.00"
- molecule: "NC(=O)C1(NCCC2CCC(c3ccc(F)cc3F)CC2)CCCC1 (configuration not stated)"
  pIC50: "6.00 to 7.00"
- molecule: "CN1CCC(NCCC2CCC(c3cc(F)ccc3Cl)CC2)CC1 (configuration not stated)"
  pIC50: "6.00 to 7.00"
- molecule: "CO[C@@H]1COCC[C@@H]1NCC[C@H]1CC[C@@H](c2ccc(F)cc2Cl)CC1"
  pIC50: "8.00 to 9.00"
- molecule: "O=C1C[C@H](NCC[C@H]2CC[C@@H](c3ccc(F)cc3Cl)CC2)CCN1"
  pIC50: "> 9.00"
- molecule: "NC(=O)C1(NCC[C@H]2CC[C@@H](c3c(F)cc(F)cc3Cl)CC2)CCOCC1"
  pIC50: "8.00 to 9.00"
- molecule: "Cc1cccnc1C1CCC(CCNC2CCCCC2)CC1 (configuration not stated)"
  pIC50: "6.00 to 7.00"
- molecule: "CC1(NCCC2CCC(c3cc(F)ccc3Cl)CC2)CCCC1 (configuration not stated)"
  pIC50: "6.00 to 7.00"
- molecule: "NC(=O)C1(NCC[C@H]2CC[C@H](c3c(F)cc(F)cc3F)CC2)CCOCC1"
  pIC50: "8.00 to 9.00"
- molecule: "NC(=O)C1(NCC[C@H]2CC[C@@H](c3ccc(F)cc3Cl)CC2)CCOC1 (some centres not stated)"
  pIC50: "6.00 to 7.00"
- molecule: "CC(=O)N1CCC(NCC[C@H]2CC[C@@H](c3ccc(F)cc3Cl)CC2)C1 (some centres not stated)"
  pIC50: "7.00 to 8.00"
- molecule: "Cc1c(C#N)cccc1[C@H]1CC[C@H](CCNC2CCOCC2)CC1"
  pIC50: "6.00 to 7.00"
- molecule: "CNC(=O)C1(NCC[C@H]2CC[C@H](c3ccc(F)cc3C(F)(F)F)CC2)CCOCC1"
  pIC50: "8.00 to 9.00"
- molecule: "NC(=O)C1(NCC[C@H]2CC[C@@H](c3cccc(F)c3Cl)CC2)CCOCC1"
  pIC50: "6.00 to 7.00"
- molecule: "Cc1cccnc1[C@H]1CC[C@H](CCNC2CCOCC2)CC1"
  pIC50: "6.00 to 7.00"
- molecule: "Fc1ccc([C@H]2CC[C@@H](CCNC3CCOCC3)CC2)c(F)c1"
  pIC50: "8.00 to 9.00"
- molecule: "Cc1cc(F)c(F)cc1[C@H]1CC[C@@H](CCNC2(C(N)=O)CCOCC2)CC1"
  pIC50: "7.00 to 8.00"
- molecule: "CC1(NCC[C@H]2CC[C@@H](c3ccc(F)cc3Cl)CC2)CCNC(=O)C1 (some centres not stated)"
  pIC50: "7.00 to 8.00"
- molecule: "CN1CCC(NCCC2CCC(c3ncc(F)cc3Cl)CC2)CC1 (configuration not stated)"
  pIC50: "6.00 to 7.00"
- molecule: "OC1CCCC1NCC[C@H]1CC[C@@H](c2ccc(F)cc2Cl)CC1 (some centres not stated)"
  pIC50: "> 9.00"
- molecule: "CC1(NCCC2CCC(c3ccccc3Cl)CC2)CCCC1 (configuration not stated)"
  pIC50: "6.00 to 7.00"
